Assay: NCI Yeast Anticancer Drug Screen. Data for the mec2-1 strain (AID 157)
Settings: S. cerevisiae mec2-1 strain, at 3.7 µM, active compounds read high
Compounds without any hit were thinned out: in the full panel of roughly 79,000, 15% have a hit.
# Lookup of reported growth inhibition keyed by entry
Unit % implied. Number only.

Example compounds with recorded growth inhibition:
compound=O=C(O)[C@H]1[C@@H](C2CCCCC2)O[C@@H](C2CCCCC2)O[C@H]1C(F)(F)F measure_unit=% observed_measurement=-2
compound=CCOC(=O)/C=C1\CCCn2c1ncc(C(=O)OCC)c2=O measure_unit=% observed_measurement=4

Moving on to another compound below.
query: Quick one: growth inhibition for "COc1ccc2c(C)cc(N/N=C/c3sccc3C)nc2c1" ?
result: -28
